Source: patent US20250136687A1

Biological target: T1, cynomolgus monkey CD3 on the surface of expanded monkey T cells (cynomolgus monkey, UniProt Q95LI5 22-198; Q95LI8 22-171; Q95LI7 23-181)
T1 construct: whole, on cells; Endogenous CD3 within the TCR-CD3 complex on T cells expanded from cynomolgus monkey PBMC
T1 sequence (Q95LI5 22-198, chain 1 of 3): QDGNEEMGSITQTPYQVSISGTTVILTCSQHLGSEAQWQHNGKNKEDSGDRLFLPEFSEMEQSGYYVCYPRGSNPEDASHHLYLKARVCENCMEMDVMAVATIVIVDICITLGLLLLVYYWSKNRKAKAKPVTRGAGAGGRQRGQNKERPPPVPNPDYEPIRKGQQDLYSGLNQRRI
T1 sequence (Q95LI8 22-171, chain 2 of 3): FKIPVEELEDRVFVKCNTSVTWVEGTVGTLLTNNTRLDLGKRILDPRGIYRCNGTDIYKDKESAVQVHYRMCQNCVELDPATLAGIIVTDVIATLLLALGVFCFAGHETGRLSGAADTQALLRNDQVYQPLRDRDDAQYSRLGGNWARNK
T1 sequence (Q95LI7 23-181, chain 3 of 3): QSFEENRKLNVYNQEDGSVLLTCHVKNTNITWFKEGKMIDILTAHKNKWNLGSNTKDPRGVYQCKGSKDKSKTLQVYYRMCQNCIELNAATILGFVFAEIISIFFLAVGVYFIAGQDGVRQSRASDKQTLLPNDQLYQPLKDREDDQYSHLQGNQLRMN
Experiment: FACS, expanded monkey T cells
Let's look at some binders and their measured MFI_Max.
Please respond with the number in MFI and leave the unit unwritten.

Sample answers from the record:
6-35.22 human-murine chimeric antibody (antibody, human IgG1, kappa, V domains shown, Human IgG1 chimera) VH: EVKLVESGGGLVQPGASLSLSCAASGFTFTDYYMSWVRQPPGKALEWLAMSRNKAKGHTIEYSSSVKGRFTISRDNSQSILYLQMNALRAEDSATYYCARDTYESYDGYFDVWGAGTTVIVSS VL: DIVMSQSPSSLAVSAGETVTMSCKSSQSLFNSRSRKNYLAWYQQKPGQTPKLLIYWASIRESGVPDRFTGSGSGTDFTLTISSVQAEDLAVYYCKQSYYLYTFGSGTKLEIKR: 18200
5-40.21 human-murine chimeric antibody (antibody, human IgG1, kappa, V domains shown, Human IgG1 chimera) VH: QVQLQQPGSELVRPGASVKLSCKASGYTFTSYWMHWVKQRPGQGLEWIGNTYPGSGSTNYDEKFKSKATLTVDSSSSTAYMQLSSLTSEDSAVYYCTRDRYGVYYFDYWGQGTTLTVSS VL: DIVMSQSPSSLAVSAGEKVTMSCKSSQSLLNSRTRKNYLAWYQQKPGQSPKLLIYWASTRESGVPDRFSGSGSGTDFTLTISSVQAEDLAVYYCTQSYNLRTFGGGTKLEIKR: 24400

// query For 40G5c-hIgG1 (antibody, V domains shown) VH: EVQLVQSGAEVKKPGASVKVSCKASGYTFTNYYIHWVRQAPGQGLEWIGWIYPGDGNTKYNEKFKGRATLTADTSTSTAYLELSSLRSEDTAVYYCARDSYSNYYFDYWGQGTLVTVSS VL: DIVMTQSPDSLAVSLGERATINCKSSQSLLNSRTRKNYLAWYQQKPGQPPKLLIYWASTRESGVPDRFSGSGSGTDFTLTISSLQAEDVAVYYCTQSFILRTFGQGTKVEIKR , what is its reported MFI_Max?
// result 24100
